- Tested On: RXRα (Homo sapiens, UniProt P19793)
- Sequence (P19793 1-462): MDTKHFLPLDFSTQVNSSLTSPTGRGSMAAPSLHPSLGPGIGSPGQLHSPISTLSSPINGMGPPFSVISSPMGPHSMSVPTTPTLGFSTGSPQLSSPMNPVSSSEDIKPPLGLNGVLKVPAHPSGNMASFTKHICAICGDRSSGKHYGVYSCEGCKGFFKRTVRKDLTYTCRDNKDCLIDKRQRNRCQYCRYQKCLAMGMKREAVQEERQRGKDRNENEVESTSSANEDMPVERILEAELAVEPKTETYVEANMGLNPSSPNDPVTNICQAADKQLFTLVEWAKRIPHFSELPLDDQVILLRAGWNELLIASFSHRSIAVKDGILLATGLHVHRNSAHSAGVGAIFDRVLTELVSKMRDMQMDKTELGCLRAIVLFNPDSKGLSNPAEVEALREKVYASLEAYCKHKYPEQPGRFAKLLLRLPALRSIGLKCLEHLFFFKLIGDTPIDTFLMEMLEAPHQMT
Measurement Label: IC50 (nM)

CC(C)(C)c1cc(-c2cc(C=CC(=O)O)ccc2O)c(OCc2ccccc2)c(C(C)(C)C)c1 [Compound 2] : 920
CC1(C)CCC(C)(C)c2cc(-c3cc(C=CC(=O)O)ccc3O)c(OCc3ccccc3)cc21 [Compound 6] : 505
COCOc1ccc(C=CC(=O)O)cc1-c1cc2c(cc1OCc1ccccc1)C(C)(C)CCC2(C)C [Compound 5] : 4000
CCCOc1cc2c(cc1-c1cc(C=CC(=O)O)ccc1OCOC)C(C)(C)CCC2(C)C [Compound 8] : 1100
